biological target: pig pancreas lipase (Sus scrofa, UniProt P00591); assay: Inhibition of pancreas lipase, titrimetric registration of oleic acid liberated in the cleavage of triolein; assay type: biochemical; conditions: pig pancreas lipase 100 μg (175 U), triolein substrate, pH 8, 10 minutes; concentration at which lipase activity was inhibited to half of the maximum; read-out: IC50 (converted)
Sequence (P00591 whole entry): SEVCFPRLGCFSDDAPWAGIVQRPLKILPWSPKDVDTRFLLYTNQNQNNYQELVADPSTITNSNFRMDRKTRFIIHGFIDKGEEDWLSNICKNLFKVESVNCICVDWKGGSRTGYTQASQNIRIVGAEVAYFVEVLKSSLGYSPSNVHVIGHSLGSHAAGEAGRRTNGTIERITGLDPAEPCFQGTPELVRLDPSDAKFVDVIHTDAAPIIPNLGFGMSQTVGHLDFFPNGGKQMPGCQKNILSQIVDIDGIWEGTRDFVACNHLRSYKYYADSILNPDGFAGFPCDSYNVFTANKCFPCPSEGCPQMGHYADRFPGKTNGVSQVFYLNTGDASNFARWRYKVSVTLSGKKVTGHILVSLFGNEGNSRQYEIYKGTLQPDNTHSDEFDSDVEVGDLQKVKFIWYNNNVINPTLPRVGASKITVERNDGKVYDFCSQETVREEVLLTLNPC
measurement_type: IC50 (nM)
Respond with the bare value in nM.

Examples with their reported IC50 follow.
| compound | IC50 (nM) |
| --- | --- |
| CCCCCC[C@@H]1C(=O)O[C@H]1CC(CCCC)OC(=O)[C@H](CC(C)C)NC=O (mixture of isomers) | 503 |
| CC[C@@H]1C(=O)O[C@H]1C[C@@H](OC(=O)[C@H](CC(C)C)NC=O)c1ccc(Oc2ccccc2)cc1 [Example 2, 25a] | 22 |
| CCCCCCCCCCCCCCCCC[C@@H](C[C@@H]1OC(=O)[C@H]1CC)OC(=O)[C@H](CC(C)C)NC=O | 210 |

Now turn to the next compound.
Input: Query IC50 for CCCCCCCCCCCC(C[C@@H]1OC(=O)[C@H]1CC)OC(=O)[C@H](CC(C)C)NC=O (single isomer, unassigned) [Example 2, 13a]
Output: 15.9
